# STUDY_TARGET: GSK3α (GST-full length GSK3α) (Homo sapiens (Human), UniProt P49840)
# Sequence (P49840 whole entry): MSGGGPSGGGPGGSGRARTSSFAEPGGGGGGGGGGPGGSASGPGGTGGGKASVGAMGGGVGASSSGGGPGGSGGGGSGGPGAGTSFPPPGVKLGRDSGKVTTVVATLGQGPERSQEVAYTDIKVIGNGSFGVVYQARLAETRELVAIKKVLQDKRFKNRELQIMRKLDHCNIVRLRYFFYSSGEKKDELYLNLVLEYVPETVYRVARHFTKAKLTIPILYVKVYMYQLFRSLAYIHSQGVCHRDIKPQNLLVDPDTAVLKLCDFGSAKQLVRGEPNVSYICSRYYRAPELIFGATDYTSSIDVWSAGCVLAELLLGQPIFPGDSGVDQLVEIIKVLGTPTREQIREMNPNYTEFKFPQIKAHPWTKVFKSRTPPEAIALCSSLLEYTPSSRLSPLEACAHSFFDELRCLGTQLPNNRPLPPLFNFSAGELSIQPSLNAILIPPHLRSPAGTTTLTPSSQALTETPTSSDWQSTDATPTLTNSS
# EXPERIMENT_SUMMARY: GSK3α TR-FRET kinase assay
# Format: biochemical
# RUN_CONDITIONS: read-out: GSK3-A (TR-FRET 1 mM ATP); GMean; IC50; 1 mM ATP; geometric mean
pIC50: −log10 of the molar value.
Known pIC50 of a selection of compounds

These solved cases illustrate the format of a correct answer.
Param readout= pIC50; system= GSK3α (GST-full length GSK3α) (Homo sapiens (Human), UniProt P49840); entry= CC[C@]1(c2cccc(-c3cnc4n3CCCC4)c2)C2=C(CC(C)(C)CC2=O)Nc2n[nH]cc21 [Compound 945607] ; returns value.
5.30 to 6.00

Proceed to CC1(C)CC(=O)C2=C(C1)Nc1n[nH]cc1C21COC2(CN(C(=O)Cc3ccccc3)C2)C1 (stereo not shown) [Compound 947306]
≥ 7.00

Proceed to CCC1(c2cccc(-c3cnn(C)c3)c2)C2=C(CC(C)(C)CC2=O)Nc2n[nH]cc21 (stereo not shown) [Compound 819577]
6.00 to 7.00

Next:
Param readout= pIC50; system= GSK3α (GST-full length GSK3α) (Homo sapiens (Human), UniProt P49840); entry= CCC1(c2cccc(-c3ccncc3OC)c2)C2=C(CC(C)(C)CC2=O)Nc2n[nH]cc21 (stereo not shown) [Compound 945481] ; returns value.
≥ 7.00

---

Known pIC50 of a selection of molecules
# STUDY_TARGET: GSK3b (GST-full length GSK3b) (Homo sapiens (Human))
# Sequence (P49841 whole entry): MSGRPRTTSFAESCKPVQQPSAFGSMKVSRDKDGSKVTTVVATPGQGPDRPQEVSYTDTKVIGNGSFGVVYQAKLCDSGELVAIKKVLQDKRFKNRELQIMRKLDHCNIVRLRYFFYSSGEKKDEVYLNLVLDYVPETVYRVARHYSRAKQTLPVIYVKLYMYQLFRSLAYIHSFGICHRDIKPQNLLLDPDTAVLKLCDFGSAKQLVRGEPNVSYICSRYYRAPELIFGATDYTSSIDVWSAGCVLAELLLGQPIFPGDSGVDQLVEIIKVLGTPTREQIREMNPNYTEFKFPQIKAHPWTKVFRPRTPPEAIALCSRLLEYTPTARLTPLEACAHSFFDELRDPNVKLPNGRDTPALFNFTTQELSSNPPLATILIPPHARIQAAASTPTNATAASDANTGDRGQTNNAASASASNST
# EXPERIMENT_SUMMARY: GSK3b TR-FRET kinase assay
# Assay type: biochemical
# RUN_CONDITIONS: 1 nM GSK3b, 2 μM ATP, 30 minute preincubation; read-out: GSK3-B TR-FRET BIOCHEMICAL (TR-FRET); IC50
pIC50: −log10 of the molar value.

These solved cases illustrate the format of a correct answer.
Given "CC[C@]1(c2cccc(C(F)(F)F)c2)C2=C(CCNC2=O)Nc2n[nH]cc21" , state its recorded pIC50.
< 5.30

Proceed to "CC1(C)CC(=O)C2=C(C1)Nc1n[nH]cc1[C@@]21COC2(CN(C(=O)Cc3ccccc3)C2)C1"
≥ 7.00

Proceed to "CC1(C)CC(=O)C2=C(C1)Nc1n[nH]cc1[C@@]21CCOC2(CCCC2)C1"
5.30 to 6.00

Proceed to "COc1ncccc1S(=O)(=O)N1CCC2(CC1)C1=C(CC(C)(C)CC1=O)Nc1n[nH]cc12"
≥ 7.00

Proceed to "CC1(C)CC(=O)C2=C(C1)Nc1n[nH]cc1[C@]21CCOC2(CCCC2)C1"
5.30 to 6.00

Next:
Given "CC(=O)N1C[C@]2(C[C@]3(CO2)C2=C(CC(C)(C)CC2=O)Nc2n[nH]cc23)[C@H]1C" , state its recorded pIC50.
≥ 7.00

Proceed to "CC[C@@]1(c2cccc(-c3cn(C)nc3C)c2)C2=C(CC(C)(C)NC2=O)Nc2n[nH]cc21"
< 5.30

---

# STUDY_TARGET: GSK3α (GST-full length GSK3α) (Homo sapiens (Human), UniProt P49840)
# EXPERIMENT_SUMMARY: GSK3α TR-FRET kinase assay
# Assay type: biochemical
# RUN_CONDITIONS: 1 nM GSK3α, 4 μM ATP, 30 minute preincubation, Table 16; read-out: GSK3-A TR-FRET BIOCHEMICAL (TR-FRET); IC50
Known IC50 of a selection of compounds

These solved cases illustrate the format of a correct answer.
Given "CC1(C)CC(=O)C2=C(C1)Nc1n[nH]cc1C21CN(Cc2ccccn2)C1" , state its recorded IC50.
> 5 µM

Proceed to CCC1(c2cccc(N(C)C(=O)CCc3ccccc3)c2)C2=C(CC(C)(C)CC2=O)Nc2n[nH]cc21 (stereo not shown)
≤ 0.1 µM

Proceed to "CC[C@]1(c2cc(-c3cnn(C)c3)ccc2F)C2=C(CC(C)(C)CC2=O)Nc2n[nH]cc21"
> 5 µM

Next:
Given "CC[C@]1(c2cccc([C@@H]3CCOC(C)(C)C3)c2)C2=C(CC(C)(C)CC2=O)Nc2n[nH]cc21" , state its recorded IC50.
> 5 µM

---

# STUDY_TARGET: UniProtKB P49841
# EXPERIMENT_SUMMARY: GSK3b TR-FRET kinase assay
# Type: biochemical
# RUN_CONDITIONS: 1 nM GSK3b, 2 μM ATP, 30 minute preincubation, Table 16; read-out: GSK3-B TR-FRET BIOCHEMICAL (TR-FRET)
pIC50: −log10 of the molar value.
RESULT_TYPE: pIC50

Given "CC1(C)CC(=O)C2=C(C1)Nc1n[nH]cc1[C@]21CCN(S(=O)(=O)CC2CC2)C1" , state its recorded pIC50.
≥ 7.00

Proceed to "CC1(C)CC(=O)C2=C(C1)Nc1n[nH]cc1[C@]21CCN(S(C)(=O)=O)C1"
≥ 7.00

Proceed to "CC1(C)CC(=O)C2=C(C1)Nc1n[nH]cc1C21CCN(S(=O)(=O)c2ccc(Cl)c(Cl)c2)CC1"
≥ 7.00

Proceed to "O=C1C2=C(Nc3n[nH]cc3C23CCOCC3)[C@@H]2CC[C@H]1C2"
5.30 to 6.00

Proceed to "CC[C@]1(c2ccccc2)C2=C(C[C@]3(CCN(C)C3=O)CC2=O)Nc2n[nH]cc21"
< 5.30

Next:
Given "CC(C)c1nc(S(=O)(=O)N2CCC3(CC2)C2=C(CC(C)(C)CC2=O)Nc2n[nH]cc23)cn1C" , state its recorded pIC50.
≥ 7.00

---

# STUDY_TARGET: GSK3α (GST-full length GSK3α) (Homo sapiens (Human), UniProt P49840)
# EXPERIMENT_SUMMARY: GSK3α TR-FRET kinase assay
# Format: biochemical
# RUN_CONDITIONS: 1 nM GSK3α, 4 μM ATP, 30 minute preincubation, Table 16; read-out: GSK3-A TR-FRET BIOCHEMICAL (TR-FRET)
RESULT_TYPE: IC50

These solved cases illustrate the format of a correct answer.
Param readout= IC50; system= GSK3α (GST-full length GSK3α) (Homo sapiens (Human), UniProt P49840); entry= "CC1(C)CC(=O)C2=C(C1)Nc1n[nH]cc1C21CN(S(=O)(=O)C2CCCC2)C1" ; returns value.
≤ 100 nM

Proceed to "CC[C@]1(c2ccccc2)C2=C(Nc3n[nH]cc31)[C@@H]1CC[C@@H](C1)C2=O"
> 5000 nM

Proceed to CCC1(c2cccc(N3CCOc4ncccc43)c2)C2=C(CC(C)(C)CC2=O)Nc2n[nH]cc21 (stereo not shown)
≤ 100 nM

Next:
Param readout= IC50; system= GSK3α (GST-full length GSK3α) (Homo sapiens (Human), UniProt P49840); entry= "CC1(C)CC(=O)C2=C(C1)Nc1n[nH]cc1C21CCN(S(=O)(=O)c2cnc3n2CCCC3)CC1" ; returns value.
≤ 100 nM

---

Known IC50 of a selection of molecules
# STUDY_TARGET: UniProt P49840
# EXPERIMENT_SUMMARY: GSK3α TR-FRET kinase assay
# Assay type: biochemical
# RUN_CONDITIONS: 1 nM GSK3α, 4 μM ATP, 30 minute preincubation, Table 16; read-out: GSK3-A TR-FRET BIOCHEMICAL (TR-FRET)

These solved cases illustrate the format of a correct answer.
Given "CC1(C)CC(=O)C2=C(C1)Nc1n[nH]cc1C21CCN(S(=O)(=O)c2cnn(-c3ccccc3)c2)CC1" , state its recorded IC50.
≤ 0.1 µM

Proceed to CCC1(c2cccc(C(F)(F)F)c2)C2=C(CC3(CCNC3=O)CC2=O)Nc2n[nH]cc21 (stereo not drawn) [Compound 950324]
≤ 0.1 µM

Proceed to "CC1(C)CC(=O)C2=C(C1)Nc1n[nH]cc1C21CCN(S(=O)(=O)c2ccc(F)c(F)c2)CC1"
≤ 0.1 µM

Proceed to CCC1(c2cccc(-c3cnn4c3CCC4)c2)C2=C(CC(C)(C)CC2=O)Nc2n[nH]cc21 (stereo not drawn)
≤ 0.1 µM

Proceed to "CC1(C)CC(=O)C2=C(C1)Nc1n[nH]cc1[C@]21CCN(S(=O)(=O)c2cccc(F)c2)C1"
≤ 0.1 µM

Next:
Given "C[C@H]1CCC[C@]2(C1)C1=C(CC(C)(C)CC1=O)Nc1n[nH]cc12" , state its recorded IC50.
0.1 to 1 µM

Proceed to CCN(c1cccc(C2(CC)C3=C(CC(C)(C)CC3=O)Nc3n[nH]cc32)c1)c1ncccn1 (stereo not drawn)
≤ 0.1 µM

Proceed to CC1(C)CC(=O)C2=C(C1)Nc1n[nH]cc1C21CCCN(CC(F)F)CC1 (stereo not drawn)
0.1 to 1 µM
